// provenance: ChEMBL document CHEMBL1149415

target: UniProt:Q07817; assay: Binding affinity to Bcl-XL in 1% human serum by fluorescence polarization assay
Measurement name: pKi
Worth noting: pKi values are minus log10 of concentrations stated in mol/L.

- Molecule: "CN(C)C(=O)N1CCN(c2ccc(C(=O)NS(=O)(=O)c3ccc(NCCSc4ccccc4)c([N+](=O)[O-])c3)cc2)CC1"
  Measurement name: "pKi"
  Obs value: 6.06
- Molecule: "COc1cc(CCCN2CCOCC2)ccc1-c1ccc(C(=O)NS(=O)(=O)c2ccc(NCCSc3ccccc3)c([N+](=O)[O-])c2)cc1"
  Measurement name: "pKi"
  Obs value: 6.24

Could you now look at the following molecule, please?
query: Recall the reported pKi of CN(C)CC[C@H](CSc1ccccc1)Nc1ccc(S(=O)(=O)NC(=O)c2ccc(N3CCC(C)(C)CC3)cc2)cc1[N+](=O)[O-] on UniProt:Q07817 and write it down.
result: 6.44

====

target: Bcl-2-like protein 1 (Homo sapiens); experiment: Binding affinity to Bcl-XL by fluorescence polarization assay
Known log10(Ki) of a selection of compounds
Could you please treat all values as log10 of Ki in µM?

Example results:
- Molecule: "O=C(NS(=O)(=O)c1ccc(NCCSc2ccccc2)c([N+](=O)[O-])c1)c1ccc(-c2ccc(F)cc2)cc1"
  Target or system: "Bcl-2-like protein 1 (Homo sapiens)"
  Obs value: -1.44
- Molecule: "COc1cc(CCCO)ccc1-c1ccc(C(=O)NS(=O)(=O)c2ccc(NCCSc3ccccc3)c([N+](=O)[O-])c2)cc1"
  Target or system: "Bcl-2-like protein 1 (Homo sapiens)"
  Obs value: -1.67
- Molecule: "O=C(NS(=O)(=O)c1ccc(NCCSc2ccccc2)c([N+](=O)[O-])c1)c1ccc(N2CCOCC2)cc1"
  Target or system: "Bcl-2-like protein 1 (Homo sapiens)"
  Obs value: 0.03
- Molecule: "O=C(NS(=O)(=O)c1ccc(NCCSc2ccccc2)c([N+](=O)[O-])c1)c1ccc(N2CCNCC2)cc1"
  Target or system: "Bcl-2-like protein 1 (Homo sapiens)"
  Obs value: 0.40
- Molecule: "COc1cc(CCCN2CCOCC2)ccc1-c1ccc(C(=O)NS(=O)(=O)c2ccc(N[C@H](CCCCN)CSc3ccccc3)c([N+](=O)[O-])c2)cc1"
  Target or system: "Bcl-2-like protein 1 (Homo sapiens)"
  Obs value: -3.10

query: Tell me log10(Ki) reported for CN(C)CC[C@@H](CSc1ccccc1)Nc1ccc(S(=O)(=O)NC(=O)c2ccc(N3CCC(C)(C)CC3)cc2)cc1[N+](=O)[O-]
result: -0.60

query: Tell me log10(Ki) reported for COc1cc(CCCN2CCOCC2)ccc1-c1ccc(C(=O)NS(=O)(=O)c2ccc(N[C@@H](CSc3ccccc3)CC(=O)N(C)C)c([N+](=O)[O-])c2)cc1
result: -2.77

query: Tell me log10(Ki) reported for CC(=O)N1CCN(c2ccc(C(=O)NS(=O)(=O)c3ccc(NCCSc4ccccc4)c([N+](=O)[O-])c3)cc2)CC1
result: -0.05

query: Tell me log10(Ki) reported for COc1cc(CCC(=O)N2CCOCC2)ccc1-c1ccc(C(=O)NS(=O)(=O)c2ccc(NCCSc3ccccc3)c([N+](=O)[O-])c2)cc1
result: -1.24

query: Tell me log10(Ki) reported for CN(C)CC[C@H](CSc1ccccc1)Nc1ccc(S(=O)(=O)NC(=O)c2ccc(N3CCC(C)(C)CC3)cc2)cc1[N+](=O)[O-]
result: -3.10

query: Tell me log10(Ki) reported for CN(C)CCC[C@H](CSc1ccccc1)Nc1ccc(S(=O)(=O)NC(=O)c2ccc(N3CCC(C)(C)CC3)cc2)cc1[N+](=O)[O-]
result: -2.59

query: Tell me log10(Ki) reported for CC1(C)CCN(c2ccc(C(=O)NS(=O)(=O)c3ccc(N[C@@H](CCN4CCOCC4)CSc4ccccc4)c([N+](=O)[O-])c3)cc2)CC1
result: -1.12

====

molecular target: UniProt P10415; test: Binding affinity to Bcl2 by fluorescence polarization assay
Sequence (P10415 whole entry): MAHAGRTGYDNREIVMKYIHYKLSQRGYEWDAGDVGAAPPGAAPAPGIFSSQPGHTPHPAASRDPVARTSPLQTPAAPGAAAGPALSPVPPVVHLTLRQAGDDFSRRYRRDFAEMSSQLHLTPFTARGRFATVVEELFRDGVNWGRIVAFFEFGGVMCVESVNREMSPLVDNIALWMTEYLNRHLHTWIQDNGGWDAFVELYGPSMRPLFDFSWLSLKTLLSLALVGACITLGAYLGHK
Measurement name: pKi
Worth noting: pKi values are minus log10 of concentrations stated in mol/L.

- Molecule: "CC1(C)CCN(c2ccc(C(=O)NS(=O)(=O)c3ccc(N[C@H](CCCCN)CSc4ccccc4)c([N+](=O)[O-])c3)cc2)CC1"
  Obs value: 6.64
- Molecule: "COc1cc(CCCN2CCOCC2)ccc1-c1ccc(C(=O)NS(=O)(=O)c2ccc(N[C@H](CCCN(C)C)CSc3ccccc3)c([N+](=O)[O-])c2)cc1"
  Obs value: 6.50
- Molecule: "COc1cc(CCCN2CCOCC2)ccc1-c1ccc(C(=O)NS(=O)(=O)c2ccc(N[C@@H](CSc3ccccc3)CC(=O)N(C)C)c([N+](=O)[O-])c2)cc1"
  Obs value: 6.92
- Molecule: "CC(C)(C)OC(=O)N1CCN(c2ccc(C(=O)NS(=O)(=O)c3ccc(NCCSc4ccccc4)c([N+](=O)[O-])c3)cc2)CC1"
  Obs value: 5.54
- Molecule: "CC1(C)CCN(c2ccc(C(=O)NS(=O)(=O)c3ccc(NCCSc4ccccc4)c([N+](=O)[O-])c3)cc2)CC1"
  Obs value: 6.72

query: Tell me pKi reported for COc1cc(CCCN2CCOCC2)ccc1-c1ccc(C(=O)NS(=O)(=O)c2ccc(N[C@H](CCN(C)C)CSc3ccccc3)c([N+](=O)[O-])c2)cc1
result: 6.94

query: Tell me pKi reported for COc1cc(C(=O)N(C)C)ccc1-c1ccc(C(=O)NS(=O)(=O)c2ccc(NCCSc3ccccc3)c([N+](=O)[O-])c2)cc1
result: 5.70

query: Tell me pKi reported for COc1cc(CCCN2CCOCC2)ccc1-c1ccc(C(=O)NS(=O)(=O)c2ccc(N[C@H](CCN3CCOCC3)CSc3ccccc3)c([N+](=O)[O-])c2)cc1
result: 6.78

====

Target: UniProtKB Q92843
Sequence (Q92843 whole entry): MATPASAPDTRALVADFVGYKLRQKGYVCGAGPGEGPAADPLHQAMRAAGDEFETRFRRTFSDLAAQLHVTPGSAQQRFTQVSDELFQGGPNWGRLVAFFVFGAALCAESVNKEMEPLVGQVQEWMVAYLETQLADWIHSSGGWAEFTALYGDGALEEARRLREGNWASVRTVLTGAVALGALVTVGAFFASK
Measurement name: pKd
Worth noting: pKd values are minus log10 of concentrations stated in mol/L.

query: Tell me pKd reported for CN(C)CC[C@H](CSc1ccccc1)Nc1ccc(S(=O)(=O)NC(=O)c2ccc(N3CCC(C)(C)CC3)cc2)cc1[N+](=O)[O-]
result: 6.34

====

Known Ki of a selection of compounds
target: Bcl-2-like protein 1 (Homo sapiens, UniProt Q07817); experiment: Binding affinity to Bcl-XL in 1% human serum by fluorescence polarization assay
Sequence (Q07817 whole entry): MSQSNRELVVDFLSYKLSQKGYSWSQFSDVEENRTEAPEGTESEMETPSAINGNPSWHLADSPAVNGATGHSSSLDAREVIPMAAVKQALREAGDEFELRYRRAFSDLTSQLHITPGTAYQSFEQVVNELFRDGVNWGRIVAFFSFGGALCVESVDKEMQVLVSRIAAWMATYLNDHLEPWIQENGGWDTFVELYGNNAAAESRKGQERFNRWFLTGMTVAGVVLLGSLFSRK

Example results:
- Molecule: "CN(C)C(=O)C[C@H](CSc1ccccc1)Nc1ccc(S(=O)(=O)NC(=O)c2ccc(N3CCC(C)(C)CC3)cc2)cc1[N+](=O)[O-]"
  Ki: "1790 nM"
- Molecule: "O=C(NS(=O)(=O)c1ccc(NCCSc2ccccc2)c([N+](=O)[O-])c1)c1ccc(N2CCOCC2)cc1"
  Ki: "> 10000 nM"
- Molecule: "CN(C)CCC[C@H](CSc1ccccc1)Nc1ccc(S(=O)(=O)NC(=O)c2ccc(N3CCC(C)(C)CC3)cc2)cc1[N+](=O)[O-]"
  Ki: "728 nM"
- Molecule: "O=C(NS(=O)(=O)c1ccc(NCCSc2ccccc2)c([N+](=O)[O-])c1)c1ccc(-c2ccc(F)cc2)cc1"
  Ki: "2500 nM"
- Molecule: "COc1cc(CN(C)C)ccc1-c1ccc(C(=O)NS(=O)(=O)c2ccc(NCCSc3ccccc3)c([N+](=O)[O-])c2)cc1"
  Ki: "1000 nM"

query: Recall the reported Ki of COc1cc(CCC(=O)N2CCOCC2)ccc1-c1ccc(C(=O)NS(=O)(=O)c2ccc(NCCSc3ccccc3)c([N+](=O)[O-])c2)cc1 on Bcl-2-like protein 1 (Homo sapiens, UniProt Q07817) and write it down.
result: 790 nM

query: Recall the reported Ki of COc1cc(C(=O)N(C)C)ccc1-c1ccc(C(=O)NS(=O)(=O)c2ccc(NCCSc3ccccc3)c([N+](=O)[O-])c2)cc1 on Bcl-2-like protein 1 (Homo sapiens, UniProt Q07817) and write it down.
result: > 10000 nM

query: Recall the reported Ki of CC(=O)N1CCN(c2ccc(C(=O)NS(=O)(=O)c3ccc(NCCSc4ccccc4)c([N+](=O)[O-])c3)cc2)CC1 on Bcl-2-like protein 1 (Homo sapiens, UniProt Q07817) and write it down.
result: 2970 nM

query: Recall the reported Ki of CC1(C)CCN(c2ccc(C(=O)NS(=O)(=O)c3ccc(N[C@H](CCN4CCOCC4)CSc4ccccc4)c([N+](=O)[O-])c3)cc2)CC1 on Bcl-2-like protein 1 (Homo sapiens, UniProt Q07817) and write it down.
result: > 10000 nM

query: Recall the reported Ki of CC1(C)CCN(c2ccc(C(=O)NS(=O)(=O)c3ccc(N[C@H](CCCCN)CSc4ccccc4)c([N+](=O)[O-])c3)cc2)CC1 on Bcl-2-like protein 1 (Homo sapiens, UniProt Q07817) and write it down.
result: 256 nM

query: Recall the reported Ki of COc1cc(CCCN2CCOCC2)ccc1-c1ccc(C(=O)NS(=O)(=O)c2ccc(N[C@H](CCN3CCOCC3)CSc3ccccc3)c([N+](=O)[O-])c2)cc1 on Bcl-2-like protein 1 (Homo sapiens, UniProt Q07817) and write it down.
result: > 10000 nM

query: Recall the reported Ki of COc1cc(CCCN2CCOCC2)ccc1-c1ccc(C(=O)NS(=O)(=O)c2ccc(N[C@H](CCCCN(C)C)CSc3ccccc3)c([N+](=O)[O-])c2)cc1 on Bcl-2-like protein 1 (Homo sapiens, UniProt Q07817) and write it down.
result: 215 nM

query: Recall the reported Ki of COc1cc(CCCN2CCOCC2)ccc1-c1ccc(C(=O)NS(=O)(=O)c2ccc(N[C@H](CCN(C)C)CSc3ccccc3)c([N+](=O)[O-])c2)cc1 on Bcl-2-like protein 1 (Homo sapiens, UniProt Q07817) and write it down.
result: 148 nM

query: Recall the reported Ki of CN(C)CCCC[C@H](CSc1ccccc1)Nc1ccc(S(=O)(=O)NC(=O)c2ccc(N3CCC(C)(C)CC3)cc2)cc1[N+](=O)[O-] on Bcl-2-like protein 1 (Homo sapiens, UniProt Q07817) and write it down.
result: 174 nM
